Sourced from PubChem BioAssay

Items are presented alongside their recorded growth inhibition.
procedureSummary: antimalarial activity against Dd2 strain (AID 2302);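 also: 0% = DMSO untreated growth and 100% = chloroquine plus artemisinin killed control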
measurementConditions: P. falciparum Dd2 in RBCs, LDH growth readout, 72 h; at 2 µM; stronger effect = higher value
Field: numeric (%). Do not append units.

Take a look at these entries with their results.
moleculeSmiles	measurementUnit	resultValue
Oc1ccc2ccccc2c1C=NNc1nc(Nc2ccccc2)nc(Nc2ccccc2)n1	%	73
Oc1ccc2ccccc2c1C=NNc1nc(Nc2ccccc2)nc(N2CCOCC2)n1	%	49
COc1ccc(Nc2nc(NN=Cc3cc(Cl)ccc3O)nc(Nc3ccccc3)n2)cc1	%	10
Oc1ccc(C=NNC(=S)Nc2cccc3ccccc23)c(O)c1	%	72
O=C(NN=Cc1nc2ccccc2[nH]1)c1cccc([N+](=O)[O-])c1	%	82

**Query** Name the reported growth inhibition value associated with the compound CCCO[C@H](C(=O)OC)[C@@H](CC1Cc2ccccc2C1)C(=O)NCCC1=CCCCC1
**Result** 57

**Query** And then Cc1cc(-c2cc(-c3ccc(OCCN(C)C)cc3)[nH]c2-c2ccc3c(c2)CCC3=NO)ccn1 , what is it?
**Result** 92

**Query** Next record, please: COc1cc(C=NNc2ccnc3cc(Cl)ccc23)ccc1O
**Result** 100

**Query** Then this compound: Oc1cccc(-c2nc3ccc(C4=N[C@H]5CCCC[C@H]5N4)cc3[nH]2)c1
**Result** 97

**Query** Can you check COc1ccc(Nc2nc(NN=Cc3ccc(O)cc3)nc(Nc3ccc([N+](=O)[O-])cc3)n2)cc1 next?
**Result** 16

**Query** Could you do the same for ON=C1CCc2cc(-c3cc(-c4ccc(OC5CCNCC5)cc4)oc3-c3ccncc3)ccc21 , please?
**Result** 99
